- System: mice
- test: Cardiazol shock (anticonvulsive / anxiolytic effect)
- Format: in vivo
- test.parameters: Mus musculus, 1 h, oral, one hour before 150 mg/kg s.c. Cardiazol, 50% of animals with marked anticonvulsive effect
- Text: The compounds of the present invention have a pronounced anxiolytic activity, i.e., they relieve or reduce anxiety. Such activity naturally cannot be measured directly in animals. […] A method for testing whether a compound has anticonvulsive properties and also therewith is anxiolytically active is the Cardiazol-Shock Method. […]
value.kind: log10 of ED50 (log10 of the value in mg/kg)
Please keep in mind that the values are log10 of ED50 expressed in mg/kg.

Recorded log10 of ED50, per entry:
compound	measured.result
O=C1CN=C(c2ccccc2)c2nc(Cl)ccc2N1CC1CC1	0.99
CN1C(=O)CN=C(c2ccccc2Cl)c2nc(Cl)ccc21	-0.01
CC(=O)OC1N=C(c2ccccc2Cl)c2nc(Cl)ccc2N(C(C)=O)C1=O (stereo not shown)	1.18
C=CCN1C(=O)CN=C(c2ccccc2)c2nc(Cl)ccc21	1.04
CN1C(=O)CN=C(c2ccccc2F)c2nc(Cl)ccc21	0.20

log10 of ED50 reading for CN1C(=O)CN=C(c2ccccc2)c2nc(Cl)ccc21 : 0.62

log10 of ED50 reading for O=C(O)CCC(=O)OC1N=C(c2ccccc2Cl)c2nc(Cl)ccc2NC1=O (stereo not shown) : 0.87

log10 of ED50 reading for CC1N=C(c2ccccc2)c2nc(Cl)ccc2NC1=O (racemic) : 1.26

log10 of ED50 reading for O=C1Nc2ccc(Cl)nc2C(c2ccccc2Cl)=NC1O (stereo not shown) : 0.38

log10 of ED50 reading for O=C1CN=C(c2ccccc2F)c2nc(Cl)ccc2N1 : 0.21

The values you see were collected from patent US4008223A.
